# target entity: H275Y NA2009
property measured: Ki (µM)
Numbers only, in µM.

What Ki value was documented for this molecule, CCC(CC)O[C@@H]1C=C(C(=O)O)C[C@H](N)[C@H]1NC(C)=O [oseltamivir carboxylate] ?
27

----------
# target entity: H275Y NA2009
# condition description: pH 6.15
property measured: Kd (µM)
One number for each entry, in µM.

What Kd value was documented for this molecule, CCC(CC)O[C@@H]1C=C(C(=O)O)C[C@H](N)[C@H]1NC(C)=O [oseltamivir carboxylate] ?
13.2

----------
# target entity: S247N NA2009
# Assay type: binding, A/California/07/2009 (H1N1) influenza virus
# condition description: pH 6.15
property measured: Kd (nM)
Give bare numbers, in nM.

What Kd value was documented for this compound, CCC(CC)O[C@@H]1C=C(C(=O)O)C[C@H](N)[C@H]1NC(C)=O [oseltamivir carboxylate] ?
410

Each recorded value in this set is attributed to paper PMC6071225.
